Target: ErbB2 with Exon 20 YVMA insertion (HER2-YVMA) (Homo sapiens (Human), UniProt P04626, INS775YVMA)
Sequence (P04626 other isoform, or with tags, fused parts or gaps ins YVMA behind 775): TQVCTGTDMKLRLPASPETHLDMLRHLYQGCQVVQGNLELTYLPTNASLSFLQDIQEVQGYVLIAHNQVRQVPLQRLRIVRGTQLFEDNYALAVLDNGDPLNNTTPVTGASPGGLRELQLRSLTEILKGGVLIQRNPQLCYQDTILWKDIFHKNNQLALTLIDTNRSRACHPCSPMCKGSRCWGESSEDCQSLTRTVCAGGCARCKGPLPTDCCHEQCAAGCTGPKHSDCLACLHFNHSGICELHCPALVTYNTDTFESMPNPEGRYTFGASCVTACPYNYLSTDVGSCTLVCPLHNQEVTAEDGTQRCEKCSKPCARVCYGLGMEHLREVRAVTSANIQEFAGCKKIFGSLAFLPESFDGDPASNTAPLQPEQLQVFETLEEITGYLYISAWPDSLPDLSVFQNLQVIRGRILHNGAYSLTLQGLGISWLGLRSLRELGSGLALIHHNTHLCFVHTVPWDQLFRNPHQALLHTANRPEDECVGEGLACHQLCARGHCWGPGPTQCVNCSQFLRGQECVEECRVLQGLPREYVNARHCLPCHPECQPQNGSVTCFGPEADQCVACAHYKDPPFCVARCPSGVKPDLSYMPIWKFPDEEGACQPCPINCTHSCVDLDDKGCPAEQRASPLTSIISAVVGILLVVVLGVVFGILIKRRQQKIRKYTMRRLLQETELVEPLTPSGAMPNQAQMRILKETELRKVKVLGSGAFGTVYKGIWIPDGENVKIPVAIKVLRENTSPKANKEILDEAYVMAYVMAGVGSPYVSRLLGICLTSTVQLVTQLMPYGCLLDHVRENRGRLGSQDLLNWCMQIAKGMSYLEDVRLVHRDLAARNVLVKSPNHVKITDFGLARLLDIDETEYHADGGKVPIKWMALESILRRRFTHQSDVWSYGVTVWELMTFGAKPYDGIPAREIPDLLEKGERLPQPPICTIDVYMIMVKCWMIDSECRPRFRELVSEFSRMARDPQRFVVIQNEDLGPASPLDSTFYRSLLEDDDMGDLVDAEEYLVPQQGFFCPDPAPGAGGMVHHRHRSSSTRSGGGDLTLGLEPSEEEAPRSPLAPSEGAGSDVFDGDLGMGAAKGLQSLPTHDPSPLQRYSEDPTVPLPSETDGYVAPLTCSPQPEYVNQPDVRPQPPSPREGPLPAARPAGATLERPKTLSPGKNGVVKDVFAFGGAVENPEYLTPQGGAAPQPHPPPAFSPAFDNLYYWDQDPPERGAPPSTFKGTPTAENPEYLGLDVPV
Experiment: Cellular Phosphorylation Assay, Assay 4 (constitutive ErbB2 phosphorylation, NIH 3T3 cells)
Format: cell-based
Conditions: cellular ErbB2 YVMA phosphorylation
For each record, write down the corresponding log10(IC50).
Record value = log10 of IC50 given in nM.

Would you please look over these solved cases?
compound="C=CC(=O)N1CC2CCC(C1)N2c1ccc2ncnc(Nc3cc(C)c(Oc4ccn5ncnc5c4)cc3F)c2n1 [Example 454]" quantity=log10(IC50) test_value=1.15
compound="C=CC(=O)N1CC[C@@H]2C[C@H]1CN2c1ccc2ncnc(Nc3ccc(Oc4cnc5c(c4)ncn5C)c(C)c3F)c2n1 [Example 317]" quantity=log10(IC50) test_value=0.81
compound="C=CC(=O)N1[C@H]2CC[C@@H]1[C@H](c1ccc3ncnc(Nc4cc(C)c(Oc5ccn6ncnc6c5)cc4F)c3n1)CC2 [Example 428]" quantity=log10(IC50) test_value=1.39
compound="C=CC(=O)N1[C@H](C)CN(c2ccc3ncnc(Nc4ccc(Oc5ccn6ncnc6c5)c(Cl)c4F)c3n2)C[C@@H]1C [Example 288]" quantity=log10(IC50) test_value=1.02
compound="C=CC(=O)N(C)[C@H]1CCN(c2ccc3ncnc(Nc4ccc(Oc5ccn6ncnc6c5)c(C)c4F)c3n2)C1 [Example 352]" quantity=log10(IC50) test_value=1.06
compound="C=C(C)C(=O)N1CCN(c2ccc3ncnc(Nc4ccc(Oc5ccn6ncnc6c5)c(C)c4F)c3n2)CC1 [Example 364]" quantity=log10(IC50) test_value=2.75

Prompt: Which log10(IC50) value belongs to C=CC(=O)N1CC[C@@H]2C[C@H]1CN2c1ccc2ncnc(Nc3cc(Cl)c(Oc4cnc5c(c4)ncn5C)cc3F)c2n1 [Example 456] ?
Completion: 2.40

The origin of these recorded values is patent US12447153B2.
